- Tested on: MCF7 breast
- test protocol: NCI-60 one-dose screen, 48 h
- experimental context: 10 µM unless noted
- Description: Growth inhibition of the MCF7 human tumor cell line is measured as a screen for anti-cancer activity. Cells are grown in 96 well plates and exposed to the test compound for 48 hours. Compounds are tested at a single concentration, which is 10^-5 M for most compounds. The reported endpoint is percent growth (GI% or GIPRCNT), where numbers from 0 - 100% represent growth inhibition, and numbers from -100% - 0 represent cell death. For example, a value of 40 represents 60% growth inhibition. […]
About 83,000 compounds went through this panel and 20% of them were active in at least one assay; those are over-represented in the sample as a whole. Calls of active or inactive are those of the source. The calls were made as follows: active = growth percent below 10; inactive = the rest.
Pick one: True = active, False = inactive

Here's what some known entries look like.
Cc1ccc(-c2nc([P+](c3ccccc3)(c3ccccc3)c3ccccc3)c(N3C[C@H]4C[C@H](C3)c3cccc(=O)n3C4)o2)cc1    False
Cc1ccc(N(CC(=O)Nc2ccc(S(=O)(=O)NC3CCN(C)CC3)cc2)S(=O)(=O)c2ccc(Cl)cc2)cc1    False
COc1ccc2c(c1)c(-c1nc(-c3c[nH]c4ncccc34)cs1)cn2CCNC(=O)OC(C)(C)C    False
C=C1C(=O)O[C@H]2[C@H]1CC/C(Cn1cc(-c3ccc(OC)cc3)nn1)=C\CC[C@@]1(C)O[C@@H]21    True
CCCCCCCCNc1cccc2c1C(=O)c1ccccc1C2=O    False

**Q:** Would you mind telling me which call this test gave CCSc1ncnc2c1ncn2C1OC(CO)C(O)C1O (stereo not given) ?
**A:** False

**Q:** Would you mind telling me which call this test gave `Brc1ccc(Cn2nnnc2-c2ccn(-c3ccccc3)n2)cc1` ?
**A:** False

**Q:** Would you mind telling me which call this test gave Nc1c2c(nc3ccc(Cl)cc13)CC(c1ccc(O)cc1)CC2=O (stereo not given) ?
**A:** False

**Q:** Would you mind telling me which call this test gave `COc1cccc(-c2nn(-c3ccccc3)cc2-c2ccnc(NCCNS(=O)(=O)c3cccc(F)c3)c2)c1` ?
**A:** False

**Q:** Would you mind telling me which call this test gave `C=C1C(=O)O[C@H]2[C@H]1CC/C(COC(=O)NCc1c[nH]c3ccccc13)=C\CC[C@@]1(C)O[C@@H]21` ?
**A:** False

**Q:** Would you mind telling me which call this test gave CC(=O)O[C@H]1CC[C@@]2(C)[C@@H](CC[C@@H]3[C@@H]2CC(=O)[C@@]2(C)[C@H]3C[C@@H](C3CCCC3=O)[C@@H]2C(C)=O)C1 (stereo not given in full) ?
**A:** False

**Q:** Would you mind telling me which call this test gave `COC(=O)[C@]12CC[C@@H](C)[C@H](C)[C@@H]1C1=CC[C@@H]3[C@@]4(C)C[C@@H](O)[C@H](O)[C@@](C)(CO)C4=CC[C@@]3(C)[C@]1(C)CC2` ?
**A:** True

**Q:** Would you mind telling me which call this test gave `Cn1c(/C(C#N)=C/c2ccc3ccccc3c2)cc2ccccc21` ?
**A:** False

**Q:** Would you mind telling me which call this test gave `CCCCC[C@H]1C/C=C2/C(=O)C=C[C@@H]2C/C=C\CCCC(=O)O[C@@H](CCCCC)C/C=C2/C(=O)C=C[C@@H]2C/C=C\CCCC(=O)O1` ?
**A:** True

**Q:** Would you mind telling me which call this test gave `COc1cccc(-c2nn(-c3ccccc3)cc2-c2ccnc(NCCCNS(=O)(=O)c3ccc(Br)cc3)c2)c1` ?
**A:** False

**Q:** Would you mind telling me which call this test gave `O=C1OC(c2ccc(Cl)c(Cl)c2)=C/C1=C/c1cccc([N+](=O)[O-])c1` ?
**A:** False

**Q:** Would you mind telling me which call this test gave CCCCC/C(=C\c1ccccc1)C1OC(C)C(C)O1 (stereo not given) ?
**A:** False

**Q:** Would you mind telling me which call this test gave `Cc1cc(N(CCNc2ccnc3cc(Cl)ccc23)Cc2ccco2)nc(Cl)n1` ?
**A:** True

**Q:** Would you mind telling me which call this test gave Oc1ccc(CCC2CCCC(CCc3ccc(OCCF)cc3)N2)cc1 (stereo not given) ?
**A:** False

**Q:** Would you mind telling me which call this test gave `CCCCCCCN(CCCCCCC)C(=N)c1ccnc2ccccc12` ?
**A:** True

**Q:** Would you mind telling me which call this test gave `Fc1ccc(Nc2nnc(-c3ccc(Cl)cc3)o2)cc1` ?
**A:** False

**Q:** Would you mind telling me which call this test gave OCC12CCCC(CO)(COC1)C2O (stereo not given) ?
**A:** False

**Q:** Would you mind telling me which call this test gave `COc1ccc(-c2nc3ccccn3c2-c2nc3ccc(Cl)cc3[nH]2)cc1` ?
**A:** False

**Q:** Would you mind telling me which call this test gave `O=C(O)c1cccc2c1C(=O)N(c1ccc3c(c1)Cc1ccccc1-3)C2=O` ?
**A:** False

**Q:** Would you mind telling me which call this test gave `COc1ccc(NC(=S)N/N=C/c2ccccc2SSCCC(=O)OC[C@H]2O[C@H](O)[C@H](O)[C@@H](O)[C@@H]2O)cc1` ?
**A:** False

**Q:** Would you mind telling me which call this test gave `Cc1ccccc1-c1nc(C(Cl)Cl)nc2cc(-c3ccccc3)nn12` ?
**A:** False

**Q:** Would you mind telling me which call this test gave COC(=O)C(Cc1ccccc1)n1cc(COc2nc(Cl)nc(Nc3ccc(Cl)cc3)n2)nn1 (stereo not given) ?
**A:** False
